System: MALME-3M melanoma
Assay: NCI-60 one-dose screen, 48 h
Settings: 10 µM unless noted
The panel holds about 83,000 compounds, 20% with a hit somewhere; the sample as a whole holds those more often. Calls of active or inactive are those of the source. The calls were made as follows: active = growth percent below 10; inactive = the rest.
Labels: Y = active, N = inactive

compound	class.assignment
Cc1cc2nc3c4cc([N+](=O)[O-])ccc4n(CCN(C)C)c3nc2cc1C	Y
COc1ccc(C(=O)C2C(C#N)C(C#N)C3C=Cc4ccccc4N32)cc1 (stereo not drawn)	N
Cc1c(C(=O)NCCC(=O)NO)sc2ncnc(Nc3ccc(NC(=O)Nc4cccc(C(F)(F)F)c4)cc3)c12	N
CCCCC/C=C/C(C)=C/C1CC(C)C/C=C/CCC(O)C(OC(N)=O)CCC(C)CC(O)C(C)C(=O)O1 (stereo not drawn)	N
CN[C@@H](C)C(=O)N[C@H]1CCS[C@H]2CC(C)(C)[C@@H](C(=O)N[C@H]3c4ccccc4C[C@H]3OCC#CC#CCO[C@@H]3Cc4ccccc4[C@@H]3NC(=O)[C@H]3N4C(=O)[C@@H](NC(=O)[C@H](C)NC)CCS[C@H]4CC3(C)C)N2C1=O	Y
Cc1ccc(-c2nc3ccccn3c2/C=C2/C(=O)Nc3cc(Cl)ccc32)cc1	N
O=c1ccc(-c2nc(N3CCOCC3)c3ccccc3n2)c[nH]1	N
COc1ccc(C(=O)c2nc3ccccc3n2CC(=O)c2ccc(F)cc2)cc1	N
c1ccc2cc(Cn3c(-c4cccc5ccccc45)[n+](Cc4ccc5ccccc5c4)c4c5ccccc5c5ccccc5c43)ccc2c1	Y
CNCCn1c(=O)c2cc(OC)c(OC)cc2c2ccc3cc4c(cc3c21)OCO4	Y
Cc1ncc(C(=O)Nc2ccc(CN3CCN(C)CC3)c(C(F)(F)F)c2)cc1C#Cc1cnc(N)cc1C#N	Y
CCN(CC)CCOc1ccc(NC(=O)C(C(C)C)N2C(=O)/C(=C/c3ccc(Br)cc3)SC2=S)cc1 (stereo not drawn)	Y
Cc1cnc(C(=O)Nc2nc3ccc(S(=O)(=O)Nc4ccc(C5(C(F)(F)F)CC5)cc4)cc3[nH]2)cn1	N
Cc1cnc(C(=O)Nc2nc3ccc(S(=O)(=O)Nc4ccc(C(C)(C)C)cc4)cc3[nH]2)cn1	N
OCc1cnc2ccccc2c1NC1CCCCCC1	N
C=C1C(=O)O[C@H]2[C@H]1CC/C(CNC(=O)c1cccc3ccccc13)=C\CC[C@@]1(C)O[C@@H]21	N
Cn1c2ccccc2c2c3c(c4c5ccccc5n(C)c4c21)C(=O)OC3	N
COc1ccc(C(C)=O)c(OC)c1	N
